Data origin, for the record: PubChem BioAssay AID489023

- System: 697B cells, BCR-induced NF-kB luciferase reporter luminescence
- METHOD_NOTES: inhibitors of BCR-induced NF-kB activation, dose response, 697B cells, luciferase luminescence (AID 489023)
The source made the active and inactive calls. How the calls were made is not given here.
Valid outcomes are listed here; reply with one: active, inactive

Sample answers from the record:
>  <MOLECULE>
O=C(Nc1nc2c(Br)cc(Br)cc2c(=O)s1)c1ccco1

>  <EXPERIMENTAL_SYSTEM>
697B cells, BCR-induced NF-kB luciferase reporter luminescence

>  <ASSIGNED_LABEL>
active

$$$$
>  <MOLECULE>
O=C(NCCC1CCCCN1S(=O)(=O)c1ccc(Cl)cc1)C(=O)NCc1ccncc1 (stereo unspecified)

>  <EXPERIMENTAL_SYSTEM>
697B cells, BCR-induced NF-kB luciferase reporter luminescence

>  <ASSIGNED_LABEL>
active

$$$$
>  <MOLECULE>
O=C(NCCCN1CCOCC1)c1cc(-c2ccc(Br)cc2)on1

>  <EXPERIMENTAL_SYSTEM>
697B cells, BCR-induced NF-kB luciferase reporter luminescence

>  <ASSIGNED_LABEL>
inactive

$$$$
>  <MOLECULE>
CCOC(=O)Cc1ccc(NC(=O)c2ccc(C(C)(C)C)cc2)cc1

>  <EXPERIMENTAL_SYSTEM>
697B cells, BCR-induced NF-kB luciferase reporter luminescence

>  <ASSIGNED_LABEL>
active

$$$$
>  <MOLECULE>
CC(C)OCCCNC(=O)c1c(N)n(/N=C/c2ccccn2)c2nc3ccccc3nc12

>  <EXPERIMENTAL_SYSTEM>
697B cells, BCR-induced NF-kB luciferase reporter luminescence

>  <ASSIGNED_LABEL>
inactive

$$$$

# next molecule below
Hi team, can someone confirm the assay call for `CNC(=O)CCc1nc(-c2ccc(C(C)(C)C)cc2)no1` ? active

---

- Tested on: 697B cells, BCR-induced NF-kB luciferase reporter luminescence
- METHOD_NOTES: inhibitors of BCR-induced NF-kB activation, dose response, 697B cells, luciferase luminescence (AID 489023)
Active and inactive are the calls of the source. How the calls were made is not given here.
Valid outcomes are listed here; reply with one: class 1 = active, class 0 = inactive

Hi team, can someone confirm the assay call for `CCc1ccc(-c2nc(CSCC(=O)NC3CC3)c(C)o2)cc1` ? class 1

Hi team, can someone confirm the assay call for `CC(C)CN(C(=O)COC(=O)C12CC3CC(CC(C3)C1)C2)c1c(N)n(Cc2ccccc2)c(=O)[nH]c1=O` ? class 1

Hi team, can someone confirm the assay call for `CCCCCC/C=C/c1ccc(OC)c([C@H]2[C@H]3C=CC[C@@H](C)[C@@H]3C(=O)N2Cc2ccccc2)c1` ? class 0

Hi team, can someone confirm the assay call for `CC1=CC(C)(C)Nc2ccc(OC(=O)c3ccco3)cc21` ? class 1

Hi team, can someone confirm the assay call for N=c1ccn2c(n1)OC1C(O)C(CO)OC12 (stereo not given) ? class 1

---

Here, each record is paired with measured IC50 data.
- System: 697B cells, BCR-induced NF-kB luciferase reporter luminescence
- METHOD_NOTES: inhibitors of BCR-induced NF-kB activation, dose response, 697B cells, luciferase luminescence (AID 489023)
Calls of active or inactive are those of the source. The rule behind the calls is not given here.

# get_value(readout='IC50', item= `O=c1c(C=NCCCO)c(-c2ccccc2)[nH]n1-c1nc2ccccc2s1` ) 9.07 µM

# get_value(readout='IC50', item= `CCn1c(=O)cc(SCC(=O)N2CCC(C)CC2)c2ccccc21` ) > 80 µM (inactive)

# get_value(readout='IC50', item= `O=C(CCCc1nc(-c2ccccc2Cl)no1)NC1CCCC1` ) 1.25 µM

# get_value(readout='IC50', item= `Cc1nc2cc(-c3ccc(Cl)cc3)nn2c(C)c1CCC(=O)NCc1ccco1` ) > 80 µM (inactive)

# get_value(readout='IC50', item= `Cc1ccc(-c2nn3c(C)nnc3c3ccccc23)cc1S(=O)(=O)N1CCN(CCO)CC1` ) 26.5 µM (inactive)

# get_value(readout='IC50', item= `Cc1ccc(/C=C2\SC(=S)N(CCCC(=O)Nc3cc(C)on3)C2=O)cc1` ) 34.3 µM (inactive)
